Test system: A549
assay procedure: Antiproliferative activity against human A549 cells after 48 hrs by MTT assay
Format: functional, cell-based
assay conditions: A549, 48 h
property: pIC50
Please report pIC50 as the negative decimal logarithm of the molar concentration, giving only the number.

Worked examples, 3 molecules total:
molecule | recorded number
O=C1N(Cc2ccccc2)c2ccc(Br)cc2C12Cn1nncc1CO2 (configuration not stated) | 4.83
Cc1ccc2c(c1)C1(Cn3nncc3CO1)C(=O)N2C (configuration not stated) | 5.13
CCN1C(=O)C2(Cn3nncc3CO2)c2ccccc21 (configuration not stated) | 5.73

// lookup pIC50 for CN1C(=O)C2(Cn3nncc3CO2)c2ccccc21 (configuration not stated) 4.70

// pIC50 lookup, key: O=C1N(Cc2ccc(Br)cc2)c2ccc(Cl)cc2C12Cn1nncc1CO2 (configuration not stated) 4.63
